Origin of measurements: ChEMBL document CHEMBL3992483

Test: Cytotoxicity against human CEM-SS cells assessed as reduction in cell viability by XTT assay
Format: cell-based
Settings: CEM-SS cells
Assay Endpoint: CC50

[[record]]
test_smiles = "Cc1cc(O)c(=O)c(O)cc1-c1ccc(C(F)(F)F)cc1"
assay_endpoint = "CC50"
result = "2300 to 7100 nM"

[[record]]
test_smiles = "Cc1cc(O)c(=O)c(O)cc1C(=O)C1CCCCC1"
assay_endpoint = "CC50"
result = "2300 to 3100 nM"

[[record]]
test_smiles = "Cc1cc(O)c(=O)c(O)cc1-c1cccc2ccccc12"
assay_endpoint = "CC50"
result = "2100 to 5400 nM"


Notebook: `Cc1cc(O)c(=O)c(O)cc1C(=O)c1ccc(-c2ccccc2)cc1` , CC50 read as 140 to 970 nM
